experiment: Pharmacokinetic studies in mice (plasma PK, IV and PO)
Format: in vivo
details: mouse, plasma; female C57B16 mice, PO 3.00 mg/kg vs IV 0.50 mg/kg, dose-normalized AUCLAST ratio; read-out: FPO (oral bioavailability)

{"query.smiles": "CC[C@@H]1CN(CC[C@H]2CC[C@H](c3cn(-c4cnc(-n5ncc6cc(C#N)cnc65)cc4N[C@H](C)C#N)nn3)CC2)CCN1c1ccc(N2CCC(=O)NC2=O)cn1", "unit.text": "%", "bioavailability": 26.6}

====

Measured DC50 values are reported for all entries that follow.
system.under.test: IRAK4 (Homo sapiens, UniProt Q9NWZ3)
Construct: endogenous in cells; host or cells: THP-1 cells
Sequence (Q9NWZ3 whole entry): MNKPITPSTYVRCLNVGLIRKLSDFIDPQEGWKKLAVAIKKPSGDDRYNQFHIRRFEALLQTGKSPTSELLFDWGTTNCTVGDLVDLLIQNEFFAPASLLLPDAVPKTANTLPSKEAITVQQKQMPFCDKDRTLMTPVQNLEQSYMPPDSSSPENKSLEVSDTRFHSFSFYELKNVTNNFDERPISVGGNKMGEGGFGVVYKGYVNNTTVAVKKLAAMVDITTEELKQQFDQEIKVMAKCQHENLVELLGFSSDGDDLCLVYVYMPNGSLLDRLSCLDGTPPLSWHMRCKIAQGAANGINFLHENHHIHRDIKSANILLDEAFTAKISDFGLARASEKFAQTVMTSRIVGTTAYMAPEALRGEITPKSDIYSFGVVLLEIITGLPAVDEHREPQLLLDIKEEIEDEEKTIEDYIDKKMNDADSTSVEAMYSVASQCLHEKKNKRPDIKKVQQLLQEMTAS
experiment: LVL THP1 HTRF (THP1 Homogeneous Time Resolved Fluorescence)
Format: cell-based
details: THP1 cells, 18 h incubation with compound, read-out: LVL THP1 HTRF EC50
endpoint.label: DC50

{"molecule": "C[C@H](C#N)Nc1cc(-n2ncc3cc(C#N)cnc32)ncc1-n1cc([C@H]2CC[C@H](CCN3CC[C@H]4[C@@H]3CCN4c3ccc([C@@]4(C)CCC(=O)NC4=O)nc3)CC2)nn1 (single isomer, unassigned) [P-287]", "result": "1350 nM"}
{"molecule": "C[C@H](C#N)Nc1cc(Nc2ncc(C#N)cc2F)ncc1-n1cc([C@H]2CC[C@H](CCN3CCN(c4ccc(N5CCC(=O)NC5=O)cc4)[C@H](C)C3)CC2)nn1", "result": "8.7 nM"}
{"molecule": "C[C@H](C#N)Nc1cc(-n2ncc3cc(C#N)c(N)nc32)ncc1-n1cc([C@H]2CC[C@H](CCN3[C@@H](C)CN(c4ccc([C@@]5(C)CCC(=O)NC5=O)cn4)C[C@@H]3C)CC2)nn1 (single isomer, unassigned) [P-254]", "result": "21.7 nM"}
{"molecule": "C[C@H](C#N)Nc1cc(-n2ncc3cc(C#N)cnc32)ncc1-n1cc([C@H]2CC[C@H](CCN3CCN(c4ccc5c(N6CCC(=O)NC6=O)nn(C)c5c4)[C@H](C)C3)CC2)nn1", "result": "2 nM"}
{"molecule": "C[C@H](C#N)Nc1cc(-n2ncc3cc(C#N)cnc32)ncc1-n1cc([C@H]2CC[C@H](CCN3CC[C@H]4[C@@H]3CN4c3ccc(N4CCC(=O)NC4=O)cc3)CC2)nn1 (single isomer, unassigned)", "result": "110 nM"}
{"molecule": "C[C@H](C#N)Nc1cc(-n2ncc3cc(C#N)cnc32)ncc1-n1cc([C@H]2CC[C@](O)(CCN3CCN(c4ccc([C@@]5(C)CCC(=O)NC5=O)cc4)CC3)CC2)nn1 (single isomer, unassigned)", "result": "32 nM"}
{"molecule": "C[C@H](C#N)Nc1cc(-n2ncc3cc(C#N)cnc32)ncc1-n1cc([C@H]2CC[C@H](CCN3CC[C@@H](Oc4ccc(N5CCC(=O)NC5=O)cc4)C3)CC2)nn1", "result": "128 nM"}
{"molecule": "C[C@H](C#N)Nc1cc(-n2ncc3cc(C#N)cnc32)ncc1C(=O)N[C@H]1CC[C@H](CCN2CC3CC2CN3c2ccc(C3CCC(=O)NC3=O)cc2)CC1 (stereo partly shown)", "result": "65 nM"}
{"molecule": "C[C@H](C#N)Nc1cc(-n2ncc3cc(C#N)c(N)nc32)ncc1C(=O)N[C@H]1CC[C@H](CCN2CCN(c3ccc(C4CCC(=O)NC4=O)cc3)C(=O)C2)CC1 (stereo partly shown)", "result": "32 nM"}
{"molecule": "C[C@H]1CN(c2ccc([C@@]3(C)CCC(=O)NC3=O)cc2)C[C@H](C)N1CCC1CCC(c2cn(-c3cnc(-n4ncc5cc(C#N)cnc54)cc3NC3(C#N)CC3)nn2)CC1 (stereo partly shown)", "result": "65 nM"}
